src = ChEMBL document CHEMBL1146783

Hi there, I'd appreciate the recorded MIC for every entry that follows.
- Test system: Klebsiella pneumoniae
- assayMethodText: Minimum inhibitory concentration (MIC) against Klebsiella pneumoniae ATCC 13882
- Format: functional
- statedConditions: Klebsiella pneumoniae, ATCC 13882; read-out: MIC

Request: Tell me the measured MIC of CN(CC(=O)O)NC(=O)C[C@H](N)/C=C(\F)CN , please.
Result: > 256 mg/L

Request: Tell me the measured MIC of CN(CC(=O)O)NC(=O)C[C@H](N)/C=C/CN , please.
Result: > 256 mg/L

Request: Tell me the measured MIC of CN(CC(=O)O)NC(=O)C[C@H](N)C1CCCNC1 (stereo not given in full) , please.
Result: > 128 mg/L

Request: Tell me the measured MIC of CN(CC(=O)O)NC(=O)C[C@H](N)C1CC1CN (stereo not given in full) , please.
Result: > 128 mg/L

Request: Tell me the measured MIC of CN(CC(=O)O)NC(=O)C[C@H](N)/C=C(/F)CN , please.
Result: > 256 mg/L
